Attribution: paper PMC9227781

Target: StOASS-A (Salmonella typhimurium, UniProt P0A1E3)
Construct: His-tag (with TEV site) (cleaved yes); made in house; host or cells: E. coli Rosetta (DE3)
Sequence (P0A1E3 whole entry): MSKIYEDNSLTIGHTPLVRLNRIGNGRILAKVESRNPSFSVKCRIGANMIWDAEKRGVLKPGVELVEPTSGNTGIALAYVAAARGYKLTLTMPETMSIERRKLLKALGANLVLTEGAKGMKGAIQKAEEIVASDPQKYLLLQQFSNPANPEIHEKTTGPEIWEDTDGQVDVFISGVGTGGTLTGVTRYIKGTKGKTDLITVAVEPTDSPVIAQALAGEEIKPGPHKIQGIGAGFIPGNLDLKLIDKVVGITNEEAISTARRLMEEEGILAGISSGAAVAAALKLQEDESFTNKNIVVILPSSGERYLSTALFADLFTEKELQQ
Test: Fluorescence binding assay on purified recombinant StOASS-A
Set-up: species or system S. Typhimurium
value type: pKd
Numbers only, as −log10 of the molar value.

Any idea what its pKd is? The molecule is Cc1ccc(C[C@@]2(C(=O)O)C[C@H]2c2cccc(N3CCNCC3)c2)cc1 (relative stereo) [Compound 21i]
6.35
